- Measured Target: Cholinesterase (Equus caballus, UniProt P81908)
- Sequence (P81908 whole entry): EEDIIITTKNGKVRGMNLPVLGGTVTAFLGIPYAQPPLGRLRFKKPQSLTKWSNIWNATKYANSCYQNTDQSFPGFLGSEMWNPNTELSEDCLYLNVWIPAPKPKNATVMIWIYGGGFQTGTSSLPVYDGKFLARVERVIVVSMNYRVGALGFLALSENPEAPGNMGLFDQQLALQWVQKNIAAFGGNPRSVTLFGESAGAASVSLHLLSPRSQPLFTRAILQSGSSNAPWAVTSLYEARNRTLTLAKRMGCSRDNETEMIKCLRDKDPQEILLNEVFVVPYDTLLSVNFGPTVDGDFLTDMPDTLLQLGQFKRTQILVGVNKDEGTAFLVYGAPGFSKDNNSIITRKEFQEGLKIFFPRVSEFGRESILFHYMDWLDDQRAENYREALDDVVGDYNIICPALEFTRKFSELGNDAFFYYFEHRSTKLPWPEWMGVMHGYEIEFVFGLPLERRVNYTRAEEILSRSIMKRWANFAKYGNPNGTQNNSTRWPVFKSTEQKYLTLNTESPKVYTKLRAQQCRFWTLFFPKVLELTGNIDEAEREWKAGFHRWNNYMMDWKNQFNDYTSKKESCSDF
- Assay Name: Inhibition of equine serum BuChE using butyrylthiocholine iodide substrate by Ellman method based spectrophotometry
Reported Property: IC50 (µM)
Give just the number in µM; leave the unit off.

Field IC50 (entry O=C1Nc2ccccc2/C1=C\c1cc[n+](Cc2ccc(Cl)cc2Cl)cc1 ) reads 2.5

Field IC50 (entry O=C1Nc2ccccc2/C1=C\c1cc[n+](Cc2ccc(Cl)cc2)cc1 ) reads 2.2

====

- Measured Target: Acetylcholinesterase (Electrophorus electricus, UniProt O42275)
- Sequence (O42275 whole entry): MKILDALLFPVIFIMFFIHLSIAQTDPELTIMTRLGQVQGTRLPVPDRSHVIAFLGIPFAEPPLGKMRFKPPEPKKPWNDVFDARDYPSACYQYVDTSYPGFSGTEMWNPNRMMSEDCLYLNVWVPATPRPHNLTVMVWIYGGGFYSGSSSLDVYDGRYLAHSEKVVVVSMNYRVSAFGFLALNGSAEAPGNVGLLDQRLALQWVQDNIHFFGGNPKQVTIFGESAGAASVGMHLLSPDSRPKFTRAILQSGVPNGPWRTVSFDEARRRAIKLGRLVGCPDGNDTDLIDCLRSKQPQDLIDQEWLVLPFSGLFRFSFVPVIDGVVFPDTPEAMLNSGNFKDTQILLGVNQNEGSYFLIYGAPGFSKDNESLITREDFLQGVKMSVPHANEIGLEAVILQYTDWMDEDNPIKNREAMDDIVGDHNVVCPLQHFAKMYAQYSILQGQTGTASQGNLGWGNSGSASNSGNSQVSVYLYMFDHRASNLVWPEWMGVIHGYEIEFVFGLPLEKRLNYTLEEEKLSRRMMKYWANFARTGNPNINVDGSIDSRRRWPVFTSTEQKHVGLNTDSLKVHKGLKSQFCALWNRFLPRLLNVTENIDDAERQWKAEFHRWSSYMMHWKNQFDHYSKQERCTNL
pIC50: −log10 of the molar value.
Decision: pIC50 compared against 8; not below it gives 1.0, below it gives 0.0.

Worked cases, answers included:
>  <Smiles Entry>
O=C1Nc2ccccc2/C1=C\c1cc[n+](Cc2c(F)cccc2Cl)cc1

>  <Answer Label>
1.0

$$$$
>  <Smiles Entry>
O=C1Nc2ccccc2/C1=C\c1cc[n+](Cc2ccccc2Br)cc1

>  <Answer Label>
1.0

$$$$
>  <Smiles Entry>
O=C1Nc2ccccc2/C1=C\c1cc[n+](Cc2ccc(F)cc2)cc1

>  <Answer Label>
0.0

$$$$
>  <Smiles Entry>
O=C1Nc2ccccc2/C1=C\c1cc[n+](Cc2ccc([N+](=O)[O-])cc2)cc1

>  <Answer Label>
0.0

$$$$

Say whether O=C1Nc2ccccc2/C1=C\c1cc[n+](Cc2ccc(Cl)cc2Cl)cc1 shows pIC50 of 8 or more.
0.0

Say whether O=C1Nc2ccccc2/C1=C\c1cc[n+](Cc2ccccc2[N+](=O)[O-])cc1 shows pIC50 of 8 or more.
0.0

Say whether COc1ccc(C[n+]2ccc(/C=C3/C(=O)Nc4ccccc43)cc2)cc1 shows pIC50 of 8 or more.
0.0

Say whether O=C1Nc2ccccc2/C1=C\c1cc[n+](Cc2ccc(Cl)c(Cl)c2)cc1 shows pIC50 of 8 or more.
0.0

====

- Assay Name: Selectivity index, ratio of IC50 for equine serum BuChE to IC50 for electric eel AChE
Reported Property: Ratio IC50
Give the figure only, with no unit attached.

>  <Smiles Entry>
O=C1Nc2ccccc2/C1=C\c1cc[n+](Cc2ccccc2[N+](=O)[O-])cc1

>  <Ratio IC50>
7.5

$$$$
>  <Smiles Entry>
O=C1Nc2ccccc2/C1=C\c1cc[n+](Cc2ccccc2Cl)cc1

>  <Ratio IC50>
3110

$$$$
>  <Smiles Entry>
O=C1Nc2ccccc2/C1=C\c1cc[n+](Cc2ccc(F)cc2)cc1

>  <Ratio IC50>
4.58

$$$$

Field Ratio IC50 (entry Cc1cccc(C[n+]2ccc(/C=C3/C(=O)Nc4ccccc43)cc2)c1 ) reads 327

Field Ratio IC50 (entry O=C1Nc2ccccc2/C1=C\c1cc[n+](Cc2ccc(Cl)c(Cl)c2)cc1 ) reads 112

Field Ratio IC50 (entry O=C1Nc2ccccc2/C1=C\c1cc[n+](Cc2ccc(CCl)cc2)cc1 ) reads 9.67

Field Ratio IC50 (entry O=C1Nc2ccccc2/C1=C\c1cc[n+](Cc2ccccc2F)cc1 ) reads 3420

Field Ratio IC50 (entry O=C1Nc2ccccc2/C1=C\c1cc[n+](Cc2cccc(F)c2)cc1 ) reads 352

Field Ratio IC50 (entry O=C1Nc2ccccc2/C1=C\c1cc[n+](Cc2ccc([N+](=O)[O-])cc2)cc1 ) reads 10

====

- Measured Target: Cholinesterase (Equus caballus, UniProt P81908)
- Assay Name: Inhibition of equine serum BuChE using butyrylthiocholine iodide substrate by Ellman method based spectrophotometry
Item-by-item account of IC50
Give just the number in µM; leave the unit off.

Assay Cholinesterase (Equus caballus, UniProt P81908), sample O=C1Nc2ccccc2/C1=C\c1cc[n+](Cc2c(F)cccc2Cl)cc1 , IC50 read: 2

Assay Cholinesterase (Equus caballus, UniProt P81908), sample O=C1Nc2ccccc2/C1=C\c1cc[n+](Cc2ccccc2Cl)cc1 , IC50 read: 1.37

Assay Cholinesterase (Equus caballus, UniProt P81908), sample O=C1Nc2ccccc2/C1=C\c1cc[n+](Cc2cccc(Br)c2)cc1 , IC50 read: 1.74
